Provenance of the data: patent US7476729B2

# System: GMA32 cells
# procedure.details: FACS analysis of sub-G1 cells (cell death) in GMA32 cells
# Format: cell-based, Chinese hamster
# recorded.conditions: GMA32, 4.5 μg Dbait with lipofectamine, no irradiation or mitotic inhibitor
experimental.readout: cell death (cells in sub-G1 stage)

Dbait32: 32-bp linear double-stranded Dbait molecule (SEQ ID NO: 1) (ACGCACGGGTGTTGGGTCGTTTGTTCGGATCT; DNA, backbone not given here; linear DNA duplex, phosphorothioates at blunt ends, exact count not readable, further chemistry not fully specified)	Significant cell death
Dbait32H: hairpin double strand DNA with a stem of 32-bp, hexaethyleneglycol linker, phosphorothioate at the free blunt end (DNA ACGCACGGGTGTTGGGTCGTTTGTTCGGATCT; DNA, backbone not given here; hairpin, hexaethyleneglycol loop, 3-bp phosphorothioate at free blunt end)	Significant cell death

====

# Tested on: p53 serine 15 phosphorylation in GMA32 cells
# procedure.details: Western blot of p53 serine 15 phosphorylation in GMA32 cells
# Type: cell-based, Chinese hamster
# recorded.conditions: GMA32, Dbait with lipofectamine, no irradiation or mitotic inhibitor
# Method: Further experiment was carried out in order to look for evidence of DNA damage signaling. […] In particular, the phosphorylation of serine 15 residue is involved in the interaction with MDM2 protein which acts as a feed back control Thus, the phosphorylation status of the serine 15 of p53 was assessed by Western blot. For Western blot analysis, cells were lysed in Laemmli buffer. […] Protein-antibody complexes were detected by enhanced chemiluminescence (RPN2106 ECL, Amersham).
experimental.readout: phosphorylation of p53 serine 15

Dbait32H: hairpin double strand DNA with a stem of 32-bp, hexaethyleneglycol linker, phosphorothioate at the free blunt end (DNA ACGCACGGGTGTTGGGTCGTTTGTTCGGATCT; DNA, backbone not given here; hairpin, hexaethyleneglycol loop, 3-bp phosphorothioate at free blunt end)	highly phosphorylated
Dbait32: 32-bp linear double-stranded Dbait molecule (SEQ ID NO: 1) (ACGCACGGGTGTTGGGTCGTTTGTTCGGATCT; DNA, backbone not given here; linear DNA duplex, phosphorothioates at blunt ends, exact count not readable, further chemistry not fully specified)	highly phosphorylated

====

# test.system: Ku complex (Homo sapiens, UniProt P12956+P13010)
# Construct: in the presence of nuclear protein extracts from Hep2 cells according to standard protocol; endogenous in cells; host or cells: Hep2 cells (nuclear protein extract)
# Sequence (P12956 whole entry): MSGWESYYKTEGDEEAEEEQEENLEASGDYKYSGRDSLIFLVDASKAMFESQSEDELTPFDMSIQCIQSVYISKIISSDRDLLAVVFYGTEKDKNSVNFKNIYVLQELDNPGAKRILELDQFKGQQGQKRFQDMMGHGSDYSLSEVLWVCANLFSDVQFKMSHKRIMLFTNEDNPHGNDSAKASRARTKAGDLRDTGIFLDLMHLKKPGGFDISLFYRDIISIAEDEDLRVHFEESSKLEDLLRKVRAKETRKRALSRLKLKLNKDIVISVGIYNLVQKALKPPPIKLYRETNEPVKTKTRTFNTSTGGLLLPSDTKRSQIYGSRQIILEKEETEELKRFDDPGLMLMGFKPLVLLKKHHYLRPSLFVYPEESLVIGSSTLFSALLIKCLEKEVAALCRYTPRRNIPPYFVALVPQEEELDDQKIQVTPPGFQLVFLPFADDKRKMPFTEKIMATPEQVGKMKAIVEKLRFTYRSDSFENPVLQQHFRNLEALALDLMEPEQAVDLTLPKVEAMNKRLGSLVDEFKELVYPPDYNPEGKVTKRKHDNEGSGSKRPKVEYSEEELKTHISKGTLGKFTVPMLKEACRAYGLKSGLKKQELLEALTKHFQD
# Sequence (P13010 whole entry): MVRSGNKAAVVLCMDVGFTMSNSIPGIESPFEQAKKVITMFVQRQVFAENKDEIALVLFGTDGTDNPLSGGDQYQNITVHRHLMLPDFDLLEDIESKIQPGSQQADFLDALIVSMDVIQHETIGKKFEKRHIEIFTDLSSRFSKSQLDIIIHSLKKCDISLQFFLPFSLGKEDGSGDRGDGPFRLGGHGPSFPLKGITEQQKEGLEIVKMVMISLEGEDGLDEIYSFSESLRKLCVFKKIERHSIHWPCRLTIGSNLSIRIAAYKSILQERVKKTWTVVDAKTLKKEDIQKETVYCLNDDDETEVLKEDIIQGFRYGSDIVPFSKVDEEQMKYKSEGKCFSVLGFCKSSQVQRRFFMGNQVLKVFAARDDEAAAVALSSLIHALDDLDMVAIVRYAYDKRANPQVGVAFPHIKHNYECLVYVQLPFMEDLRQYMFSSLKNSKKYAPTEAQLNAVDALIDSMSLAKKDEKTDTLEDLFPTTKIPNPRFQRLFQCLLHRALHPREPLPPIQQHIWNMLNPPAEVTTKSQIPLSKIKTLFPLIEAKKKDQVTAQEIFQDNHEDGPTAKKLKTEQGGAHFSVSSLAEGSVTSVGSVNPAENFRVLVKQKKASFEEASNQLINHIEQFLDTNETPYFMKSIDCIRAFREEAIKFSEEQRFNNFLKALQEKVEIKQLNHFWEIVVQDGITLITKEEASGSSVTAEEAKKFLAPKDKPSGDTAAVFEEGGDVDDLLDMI
# procedure.details: Band-shift assay with Hep2 nuclear protein extracts
# Format: binding
# recorded.conditions: 10 nM 32P radio-labelled Dbait, 0-320 ng/μL Hep2 nuclear proteins, 30° C., 10 minutes
experimental.readout: retarded bands in band-shift assay

Check out these entries, answers already filled in.
Dbait24H: hairpin double strand DNA with a stem of 24-bp (DNA ACGCACGGGTGTTGGGTCGTTTGT; DNA, backbone not given here; hairpin DNA with hexaethyleneglycol loop, 3-bp phosphorothioate at free blunt end)	One retarded band
Dbait32: 32-bp linear double-stranded Dbait molecule (SEQ ID NO: 1) (ACGCACGGGTGTTGGGTCGTTTGTTCGGATCT; DNA, backbone not given here; linear DNA duplex, phosphorothioates at blunt ends, exact count not readable, further chemistry not fully specified)	two retarded band
Dbait16H: hairpin double strand DNA with a stem of 16-bp (DNA ACGCACGGGTGTTGGG; DNA, backbone not given here; hairpin DNA with hexaethyleneglycol loop, 3-bp phosphorothioate at free blunt end)	One retarded band
Dbait32H-po: full length phosphodiester Dbait32H (DNA ACGCACGGGTGTTGGGTCGTTTGTTCGGATCT; DNA, phosphodiester; hairpin DNA closed by hexaethyleneglycol loop)	two retarded band

Kindly consider the entry below.
In: Entry Dbait32H: hairpin double strand DNA with a stem of 32-bp, hexaethyleneglycol linker, phosphorothioate at the free blunt end (DNA ACGCACGGGTGTTGGGTCGTTTGTTCGGATCT; DNA, backbone not given here; hairpin, hexaethyleneglycol loop, 3-bp phosphorothioate at free blunt end) : reported retarded bands in band-shift assay = ?
Out: two retarded band

====

# Test system: DNA end-joining reaction in the nuclear extracts of Hep2 cells
# procedure.details: DNA end-joining assay in Hep2 nuclear extract
# Format: biochemical, human
# recorded.conditions: 2 h incubation with various Dbait
# Experimental: DNA end-joining was monitored by incubating ^32P-labeled 605-bp linear DNA fragments with Hep2 nuclear extract in the presence of various Dbait molecules. Ligation products migrate as dimers, trimers or tetramers, starting 605 bp monomer. […] DNA-PK activity was monitored using the kit SignaTECT DNA-dependent Protein Kinase Assay System (Promega, Madison, USA). […] The biotinylated substrate was capture on streptavidine membrane, washed and counted in a scintillation counter. […]
experimental.readout: ligation of DNA fragments in cell-free assay

Dbait32ss: 32-nt single strand DNA (SEQ ID NO: 1) (DNA ACGCACGGGTGTTGGGTCGTTTGTTCGGATCT; DNA, backbone not given here)	largely unaffected
Dbait32C: dumbbell 32-bp double strand DNA (without free blunt end) (DNA ACGCACGGGTGTTGGGTCGTTTGTTCGGATCT; DNA, backbone not given here; dumbbell duplex DNA, both ends closed by hexaethyleneglycol loops)	largely unaffected
Dbait8H: hairpin double strand DNA with a stem of 8-bp (DNA ACGCACGG; DNA, backbone not given here; hairpin, hexaethyleneglycol loop, 3-bp phosphorothioate at free blunt end)	largely unaffected

====

# Tested on: radiation-enhanced illegitimate integration of a plasmid in Hela cells
# procedure.details: Inhibition of radiation-enhanced illegitimate integration of exogenous DNA
# Format: cell-based, human
# recorded.conditions: 2 μg Dbait, fractionated 4×0.5 Gy irradiation
experimental.readout: radiation-enhanced illegitimate integration of plasmid (puromycin resistance)

Dbait8H: hairpin double strand DNA with a stem of 8-bp (DNA ACGCACGG; DNA, backbone not given here; hairpin, hexaethyleneglycol loop, 3-bp phosphorothioate at free blunt end)	not effective
Dbait32C: dumbbell 32-bp double strand DNA (without free blunt end) (DNA ACGCACGGGTGTTGGGTCGTTTGTTCGGATCT; DNA, backbone not given here; dumbbell duplex DNA, both ends closed by hexaethyleneglycol loops)	not effective
Dbait16H: hairpin double strand DNA with a stem of 16-bp (DNA ACGCACGGGTGTTGGG; DNA, backbone not given here; hairpin DNA with hexaethyleneglycol loop, 3-bp phosphorothioate at free blunt end)	not effective
Dbait32ss: 32-nt single strand DNA (SEQ ID NO: 1) (DNA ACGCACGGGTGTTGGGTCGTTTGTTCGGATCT; DNA, backbone not given here)	not effective
